Data provenance is the supplement of paper PMC10567573.

B1: KLHDC10 (parent)
chain: FGGTGIPFGESNGNGVHVCNVKYK

- Variants of: B1
- protocolDetails: protein stability index of a GFP-peptide fusion (GPS, HEK-293T) (PSI 1-6); higher = more stable;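 further: lentivirally expressed fusions sorted by FACS into six bins by GFP to DsRed ratio, PSI derived from sequencing read proportions per bin multiplied by bin number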
- appliedConditions: c terminus: a fixed tail appended
Lab note: compare protein stability index against 2. Equal or greater, write t. Smaller, write f.

Past entries and their recorded results:
variantCode | assignedLabel
E10W | t
Y23M | t
G13E | t
P7L | t
S11M | t

Exercise: Does protein stability index meet or surpass 2 for Y23S ?
Solution: t

Exercise: Does protein stability index meet or surpass 2 for V16K ?
Solution: t

Exercise: Does protein stability index meet or surpass 2 for G13I ?
Solution: f

Exercise: Does protein stability index meet or surpass 2 for I6V ?
Solution: t
